Listed below: selectivity ratio values for each entry.
Assay Method Text: Therapeutic index, ratio of IC50 for human BJ cells to IC50 for human G361 cells
Type: toxicity
Test Parameters: BJ cells versus G361 cells, read-out: Ratio IC50
Assay Readout: selectivity ratio

Smiles Record	Assay Readout	Data Value
C=C(C)[C@@H]1CC[C@]2(C(=O)NCc3cccnc3)CC[C@]3(C)[C@H](CC[C@@H]4[C@@]5(C)CC[C@H](O)C(C)(C)[C@@H]5CC[C@]43C)[C@@H]12	selectivity ratio	1
C=C(C)[C@@H]1CC[C@]2(C(=O)O)CC[C@]3(C)[C@H](CC[C@@H]4[C@@]5(C)CC[C@H](OC(=O)CCC(=O)NCc6cccnc6)C(C)(C)[C@@H]5CC[C@]43C)[C@@H]12	selectivity ratio	100
C=C(C)[C@@H]1CC[C@]2(C(=O)NCc3ccccn3)CC[C@]3(C)[C@H](CC[C@@H]4[C@@]5(C)CC[C@H](O)C(C)(C)[C@@H]5CC[C@]43C)[C@@H]12	selectivity ratio	1
C=C(C)[C@@H]1CC[C@]2(C(=O)NCc3ccncc3)CC[C@]3(C)[C@H](CC[C@@H]4[C@@]5(C)CC[C@H](O)C(C)(C)[C@@H]5CC[C@]43C)[C@@H]12	selectivity ratio	1
C=C(C)[C@@H]1CC[C@]2(C(=O)O)CC[C@]3(C)[C@H](CC[C@@H]4[C@@]5(C)CC[C@H](OC(=O)CCC(=O)NCc6ccccn6)C(C)(C)[C@@H]5CC[C@]43C)[C@@H]12	selectivity ratio	19.3
